SUBJECT OF TEST: Dog Kidney Na+, K+-ATPase (Canis lupus familiaris)
METHOD NOTES: Inhibition of the enzymatic activity of purified Na+,K+-ATPase (hydrolysis of 32P-ATP)
Assay type: biochemical
STATED CONDITIONS: Na+, K+-ATPase Inhibition IC50
pIC50: −log10 of the molar value. Counter-ions that a name gives are not always drawn.
PROPERTY LABEL: pIC50

compound="C[C@]12CC[C@H]3[C@@H](CC[C@@]4(O)CC(=NO[C@@H]5CCNC5)CC[C@]34C)[C@@H]1CCC2=O (mixture of isomers)" test_value=6.68
compound=C=C1C[C@H]2[C@@H]3CCC(=O)[C@@]3(C)CC[C@@H]2[C@@]2(C)CC/C(=N/O[C@H]3CCNC3)C[C@]12O test_value=5.22
compound="CC12CCC3C(CC(O)C4CC(=NOC5CCNC5)CCC43C)C1CCC2=O (single isomer, unassigned) [I-an, hydrochloride]" test_value=6.24
compound="C[C@]12CC/C(=N\\OC3CCNCC3)CC1C(=O)C[C@@H]1[C@@H]2CC[C@]2(C)C(=O)CC[C@@H]12 (stereo partly drawn) [I-aa, hydrochloride]" test_value=5.39
compound=C=C1C[C@H]2[C@@H]3CCC(=O)[C@@]3(C)CC[C@@H]2[C@@]2(C)CC/C(=N/O[C@@H]3CCN(C)C3)C[C@]12O test_value=4.04
compound="CON=C1CC2C3CCC(=O)C3(C)CCC2C2(C)CCC(=NOC3CCNC3)CC12 (single isomer, unassigned) [I-be]" test_value=6.59

----------
Test system: anesthetized guinea-pig
METHOD NOTES: Inotropic effect and lethal dose, slow intravenous infusion in anesthetized guinea-pig
Type: in vivo
STATED CONDITIONS: duration of the inotropic effect; anesthetized guinea-pig
Where a name gives a salt, the structure may show the parent alone.
PROPERTY LABEL: % decrease from Emax after 20 min from the end of the infusion

compound="CC12CCC3C(CC(CCO)C4CC(=NOC5CCNC5)CCC43C)C1CCC2=O (mixture of isomers) [I-bc, hydrochloride]" test_value=28%
compound="CC1CC2CC(=NOC3CCNC3)CCC2(C)C2CCC3(C)C(=O)CCC3C12 (mixture of isomers) [I-cl, hydrochloride]" test_value=7%
compound="CC12CCC3C(CC(=O)C4CC(=NOC5CCNC5)CCC43C)C1CCC2=O (mixture of isomers) [I-ae, hydrochloride]" test_value=74%
compound="C#CC1CC2C3CCC(=O)C3(C)CCC2C2(C)CCC(=NOC3CCNC3)CC12 (mixture of isomers) [I-bb, hydrochloride]" test_value=29%

----------
SUBJECT OF TEST: Dog Kidney Na+, K+-ATPase (Canis lupus familiaris)
METHOD NOTES: Inhibition of the enzymatic activity of purified Na+,K+-ATPase (hydrolysis of 32P-ATP)
Format: biochemical
STATED CONDITIONS: dog kidney enzyme; hydrolysis of 32P-ATP in presence and absence of compound; read-out: Na+, K+-ATPase Inhibition IC50
Where a name gives a salt, the structure may show the parent alone.
Below, each entry is listed with its recorded log10 of IC50.
PROPERTY LABEL: log10 of IC50 (log10 of the value in µM)

compound="CON=C1CC2C3CCC(=O)C3(C)CCC2C2(C)CCC(=NOC3CCN(C)C3)CC12 (mixture of isomers) [I-bg, hydrochloride]" test_value=0.76
compound="CC12CCC3C(CC4(CC4)C4CC(=NOC5CCNC5)CCC34C)C1CCC2=O (mixture of isomers) [I-ba, hydrochloride]" test_value=-0.66
compound="COCC1CC2CC(=NOC3CCNC3)CCC2(C)C2CCC3(C)C(=O)CCC3C12 (mixture of isomers) [I-dm, hydrochloride]" test_value=0.91
compound=CO/N=C1\C[C@H]2[C@@H]3CCC(=O)[C@@]3(C)CC[C@@H]2[C@@]2(C)CC/C(=N/O[C@H]3CCN(C)C3)C[C@]12O test_value=1.98
compound="C=CCON=C1CC2CC(=NOC3CCNC3)CCC2(C)C2CCC3(C)C(=O)CCC3C12 (mixture of isomers)" test_value=0.60
compound="CC12CCC3C(CC(CCO)C4CC(=NOC5CCNC5)CCC43C)C1CCC2=O (mixture of isomers) [I-bc, hydrochloride]" test_value=-1.24

----------
SUBJECT OF TEST: Dog Kidney Na+, K+-ATPase (Canis lupus familiaris, UniProt P50997)
METHOD NOTES: Inhibition of the enzymatic activity of purified Na+,K+-ATPase (hydrolysis of 32P-ATP)
Format: biochemical
STATED CONDITIONS: Na+, K+-ATPase Inhibition IC50
pIC50: −log10 of the molar value. Where a name gives a salt, the structure may show the parent alone.
Form field: pIC50 (one value per entry).
PROPERTY LABEL: pIC50

compound="CC12CCC3C(CC(=O)C4CC(=NOC5CCNC5)CCC43C)C1CCC2=O (single isomer, unassigned) [I-ad, hydrochloride]" property_label=pIC50 test_value=6.08
compound="CC12CCC3C(CC(=O)C4CC(=NOCC5CCCN5)CCC43C)C1CCC2=O (mixture of isomers) [I-ai, hydrochloride]" property_label=pIC50 test_value=4.96
compound="C[C@]12CC/C(=N/O[C@H]3CCNC3)CC1[C@@H](CO)C(=O)[C@@H]1[C@@H]2CC[C@]2(C)C(=O)CC[C@@H]12 (stereo partly drawn)" property_label=pIC50 test_value=6.68
compound="CN1CCC(ON=C2CCC3(C)C(C2)C(=O)CC2C4CCC(=O)C4(C)CCC23)C1 (single isomer, unassigned) [I-ak, hydrochloride]" property_label=pIC50 test_value=4.39
compound=C=C1C[C@H]2[C@@H]3CCC(=O)[C@@]3(C)CC[C@@H]2[C@@]2(C)CC/C(=N/O[C@H]3CCN(C)C3)C[C@]12O property_label=pIC50 test_value=4.02
compound="C[C@]12CC/C(=N\\OC3CCNC3)CC1C(=O)C[C@@H]1[C@@H]2CC[C@]2(C)C(=O)CC[C@@H]12 (mixture of isomers) [I-ac, hydrochloride]" property_label=pIC50 test_value=6.96

----------
System: anesthetized guinea-pig
METHOD NOTES: Inotropic effect and lethal dose, slow intravenous infusion in anesthetized guinea-pig
Type: in vivo
STATED CONDITIONS: Cavia porcellus, iv, 1.5 h; slow i.v. infusion over 90 minutes, anesthetized guinea-pig; read-out: EDmax (dose inducing maximum positive inotropic effect)
Structures can show the parent of a compound that is named as a salt.
As shown below, each of these compounds has a reported ED (max) value.
PROPERTY LABEL: ED (max) (µmol/kg)

compound="C[C@H]1O[C@@H](O[C@H]2[C@@H](O)C[C@H](O[C@H]3[C@@H](O)C[C@H](O[C@H]4CC[C@@]5(C)[C@H](CC[C@@H]6[C@@H]5C[C@@H](O)[C@]5(C)[C@@H](C7=CC(=O)OC7)CC[C@]65O)C4)O[C@@H]3C)O[C@@H]2C)C[C@H](O)[C@@H]1O [digoxin, reference compound]" property_label="ED (max)" test_value=0.65
compound="COC(=O)C1CC2C3CCC(=O)C3(C)CCC2C2(C)CCC(=NOC3CCNC3)CC12 (mixture of isomers) [I-au, hydrochloride]" property_label="ED (max)" test_value=23.3
compound="C#CC1CC2C3CCC(=O)C3(C)CCC2C2(C)CCC(=NOC3CCNC3)CC12 (mixture of isomers) [I-bb, hydrochloride]" property_label="ED (max)" test_value=6.39
compound="C[C@]12CC[C@H]3[C@@H](C/C(=N\\O)[C@@]4(O)CC(=NO[C@H]5CCNC5)CC[C@]34C)[C@@H]1CCC2=O (mixture of isomers) [I-bq, hydrochloride]" property_label="ED (max)" test_value=3.72
compound="C[C@]12CCC(=NOCCN)CC1C(=O)C[C@@H]1[C@@H]2CC[C@]2(C)C(=O)CC[C@@H]12.Cl (mixture of isomers) [compd 22b, hydrochloride, reference compound]" property_label="ED (max)" test_value=5.74
compound="CC12CCC3C(CC(=C(F)F)C4CC(=NOC5CCNC5)CCC43C)C1CCC2=O (mixture of isomers) [I-az, hydrochloride]" property_label="ED (max)" test_value=18.4

----------
Tested on: fresh rat hepatocytes
METHOD NOTES: Metabolism in fresh rat hepatocytes
STATED CONDITIONS: test item nominal concentration 45 μM, 2590000-3084000 hepatocytes/ml
Structures can show the parent of a compound that is named as a salt.
PROPERTY LABEL: % of compound metabolized after 60 minutes (%)

compound="CC12CCC3C(C(=O)C(CO)C4CC(=NOC5CCNC5)CCC43C)C1CCC2=O (mixture of isomers) [I-cs]" output_unit=% test_value=5
compound="CC12CCC3C(C(O)C(CO)C4CC(=NOC5CCNC5)CCC43C)C1CCC2=O (single isomer, unassigned) [I-dk, hydrochloride]" output_unit=% test_value=5
compound="CON=C1CC2C3CCC(=O)C3(C)CCC2C2(C)CCC(=NOC3CCNC3)CC12O (single isomer, unassigned) [I-bw]" output_unit=% test_value=24
compound="CON=C1CC2C3CCC(=O)C3(C)CCC2C2(C)CCC(=NOC3CCNC3)CC12 (single isomer, unassigned) [I-be]" output_unit=% test_value=42
compound="CC12CCC3C(CC(O)C4CC(=NOC5CCNC5)CCC43C)C1CCC2=O (single isomer, unassigned) [I-an, hydrochloride]" output_unit=% test_value=21

Numbers sourced from patent US8536160B2.
